Each recorded value in this set is attributed to PubChem BioAssay (EPA / NIEHS).

# Read-out: ABC Transporter (ABCB11), ABCB11 (gene 8647)
# TEST: LTEA_HepaRG_ABCB11: Life Technologies and Expression Analysis (LTEA) Assay for ABC Transporter (ABCB11) using HepaRG (AID 2283463)
# APPLIED_CONDITIONS: mRNA level, 48 h; actives raise or lower the signal
Calls of active or inactive are those of the source. The calls were made as follows: active = hit-call score of the fitted dose curve at least 0.9, where 1 is the maximum; inactive = score below 0.9.
Outcomes: active, inactive

compound=Nc1ccc(Cc2ccc(N)cc2)cc1 assigned_class=inactive
compound="O=C(O)C1C2CCC(O2)C1C(=O)O (configuration not stated)" assigned_class=active
compound=CCC[CH2][Sn]([Cl])([CH2]CCC)[CH2]CCC assigned_class=active
compound=[As]#[In] assigned_class=inactive
compound=Clc1ccc(C(c2ccc(Cl)cc2)C(Cl)Cl)cc1 assigned_class=active
compound=ClCCOCCCl assigned_class=inactive
compound="CC(C)(C)C(O)(CCc1ccc(Cl)cc1)Cn1cncn1 (configuration not stated)" assigned_class=inactive
compound=CCNS(=O)(=O)C(F)(F)C(F)(F)C(F)(F)C(F)(F)C(F)(F)C(F)(F)C(F)(F)C(F)(F)F assigned_class=active
compound="ClC1=C(Cl)C2(Cl)C3C(Cl)C=CC3C1(Cl)C2(Cl)Cl (configuration not stated)" assigned_class=active
compound=CN(C)C(=O)Nc1ccc(Cl)cc1 assigned_class=inactive
compound=CCCCCCCCn1sccc1=O assigned_class=active
compound=O=[N+]([O-])c1ccc(Oc2ccc(Cl)cc2Cl)cc1 assigned_class=active
compound=OCCCl assigned_class=inactive
compound=COc1cc(C=O)cc2c1[C@H](COC(N)=O)[C@]1(OC(C)=O)ON2C[C@H]2[C@@H]1N2C(C)=O assigned_class=active
compound=COP(=S)(OC)SCN1C(=O)c2ccccc2C1=O assigned_class=inactive
compound=c1ccc2c(c1)oc1ccccc12 assigned_class=inactive
compound=Clc1ccccc1Cl assigned_class=inactive
compound="CCC(C)c1ccc(O)cc1 (configuration not stated)" assigned_class=inactive
compound=CN(C)[C@@H]1C(=O)C(C(N)=O)=C(O)[C@@]2(O)C(=O)C3=C(O)c4c(O)cccc4[C@@](C)(O)[C@H]3C[C@@H]12 assigned_class=inactive
compound=ClC1=C(Cl)[C@]2(Cl)[C@H]3[C@H]([C@@H]4C=C[C@H]3C4)[C@@]1(Cl)C2(Cl)Cl assigned_class=inactive
compound=Nc1ccc(Oc2ccc(N)cc2)cc1 assigned_class=inactive
compound=CCOC(=O)[C@]1(c2ccccc2)Oc2ccccc2[C@@H]1N assigned_class=active
compound=C=CCc1ccc2c(c1)OCO2 assigned_class=inactive
compound=COC(=O)c1ccccc1N assigned_class=inactive
compound=[O-][Cl+]O assigned_class=inactive
compound=CS(=O)(=O)NC(=O)c1cc(Oc2ccc(C(F)(F)F)cc2Cl)ccc1[N+](=O)[O-] assigned_class=active
compound=Clc1ccc(C(c2ccc(Cl)cc2)C(Cl)(Cl)Cl)cc1 assigned_class=inactive
compound=O=Cc1ccco1 assigned_class=inactive
compound=Oc1ccccc1Cl assigned_class=inactive
compound=O=C(N[C@H](c1ccccc1)[C@@H]1CN2CCC1CC2)c1c(Cl)ccc(C(F)(F)F)c1Cl assigned_class=inactive
compound=c1ccc(NNc2ccccc2)cc1 assigned_class=inactive
compound=N#CC(Br)Br assigned_class=inactive
compound="CCOc1cccc(C2(N3CCN(c4ccccc4)CC3)CCC(C)CC2)c1 (configuration not stated)" assigned_class=inactive
compound=Cn1cc(-c2ccccc2)c(=O)c(-c2cccc(C(F)(F)F)c2)c1 assigned_class=inactive
compound=CN(C)c1ccccc1 assigned_class=inactive
compound=CN(C)c1ccc(C(=O)c2ccc(N(C)C)cc2)cc1 assigned_class=inactive
compound=Cc1cc(N=Nc2ccccc2C)ccc1N assigned_class=active
compound=Cc1ccc(N)cc1 assigned_class=inactive
compound=CNC(=O)Oc1cccc2c1OC(C)(C)C2 assigned_class=active
compound="CC(O)CCO (configuration not stated)" assigned_class=inactive
compound=OCCCBr assigned_class=inactive
compound=Oc1ccc2ccc3cccc4ccc1c2c34 assigned_class=inactive

====

# EXPERIMENTAL_SYSTEM: PGR (gene 5241) (UniProt P06401)
# Sequence (P06401 whole entry, looked up): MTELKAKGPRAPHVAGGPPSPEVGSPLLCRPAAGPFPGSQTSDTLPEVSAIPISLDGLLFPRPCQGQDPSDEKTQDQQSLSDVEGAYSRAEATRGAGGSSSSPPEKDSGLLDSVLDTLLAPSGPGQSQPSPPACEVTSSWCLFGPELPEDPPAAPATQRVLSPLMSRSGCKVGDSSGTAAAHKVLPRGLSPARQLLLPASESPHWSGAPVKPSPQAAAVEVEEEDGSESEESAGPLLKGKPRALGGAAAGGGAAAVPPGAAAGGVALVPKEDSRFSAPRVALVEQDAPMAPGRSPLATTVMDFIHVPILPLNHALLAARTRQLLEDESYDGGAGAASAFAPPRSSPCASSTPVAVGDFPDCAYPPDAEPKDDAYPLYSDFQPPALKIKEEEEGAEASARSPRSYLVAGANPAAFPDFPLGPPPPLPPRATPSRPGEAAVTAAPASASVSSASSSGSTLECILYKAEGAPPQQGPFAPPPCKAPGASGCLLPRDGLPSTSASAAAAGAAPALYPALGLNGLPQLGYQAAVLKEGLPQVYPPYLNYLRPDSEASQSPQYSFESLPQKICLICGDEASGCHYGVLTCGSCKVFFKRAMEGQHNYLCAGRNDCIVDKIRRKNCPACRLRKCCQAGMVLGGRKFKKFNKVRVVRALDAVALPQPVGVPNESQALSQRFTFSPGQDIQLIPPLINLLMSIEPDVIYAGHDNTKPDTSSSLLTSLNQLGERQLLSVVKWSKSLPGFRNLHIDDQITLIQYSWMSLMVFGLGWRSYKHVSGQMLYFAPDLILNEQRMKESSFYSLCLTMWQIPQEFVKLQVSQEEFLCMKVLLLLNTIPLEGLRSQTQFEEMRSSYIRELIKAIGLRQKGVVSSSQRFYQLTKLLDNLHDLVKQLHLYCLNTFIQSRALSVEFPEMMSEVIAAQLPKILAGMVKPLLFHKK
# TEST: NVS_NR_hPR: NovaScreen (NVS) Nuclear Receptor Binding Assay for human Progestron Receptor (PR) (AID 2283360);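 also: active means loss of bound radioligand signal versus DMSO baseline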
Results filed as inconclusive are left out. Active and inactive are the calls of the source. The calls were made as follows: active = hit-call score of the fitted dose curve at least 0.9, where 1 is the maximum; inconclusive = response in the unintended direction; inactive = score below 0.9.
Outcome codes: 1 (yes) for active, 0 (no) for inactive

molecule=C[C@]12C=CC3=C4CCC(=O)C=C4CC[C@H]3[C@@H]1CC[C@@H]2O assigned_class="1 (yes)"
molecule=Oc1ccc2ccc3cccc4ccc1c2c34 assigned_class="0 (no)"
molecule=c1ccc2c(c1)-c1cccc3cccc-2c13 assigned_class="0 (no)"
molecule=CCN(CC)CCO assigned_class="0 (no)"
molecule="c1ccc(C2CO2)cc1 (centres undefined)" assigned_class="0 (no)"
molecule=Nc1ccc([N+](=O)[O-])cc1 assigned_class="0 (no)"
molecule=Cc1ccc(N=C=O)cc1N=C=O assigned_class="0 (no)"
molecule=CCCCCCCCOC(=O)c1ccc(C(=O)OCCCCCCCC)c(C(=O)OCCCCCCCC)c1 assigned_class="0 (no)"
molecule=CCC[CH2][Sn]([Cl])([CH2]CCC)[CH2]CCC assigned_class="1 (yes)"

====

# TEST: APR_HepG2_p53Act_24hr: Apredica 24-hour HepG2 Assay for p53 Activation (AID 2282913);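 also: p53 protein immunofluorescence averaged per cell in HepG2 with Hoechst nuclei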
# APPLIED_CONDITIONS: high-content imaging, actives raise or lower the signal
Activity calls are given as the source filed them. The calls were made as follows: active = hit-call score of the fitted dose curve at least 0.9, where 1 is the maximum; inactive = score below 0.9.
Outcome codes: 1 = active, -1 = inactive

compound=OCCCl assigned_class=-1
compound=CC(C)(C)OOC(C)(C)CCC(C)(C)OOC(C)(C)C assigned_class=-1
compound=Nc1ccc([N+](=O)[O-])cc1 assigned_class=-1
compound=Brc1ccc(Oc2ccccc2)cc1 assigned_class=-1
compound=O=C(N[C@H](c1ccccc1)[C@@H]1CN2CCC1CC2)c1c(Cl)ccc(C(F)(F)F)c1Cl assigned_class=1
compound=COC(=O)Nc1nc2ccccc2[nH]1 assigned_class=1
compound=CN(C)C(=O)Nc1ccc(Cl)cc1 assigned_class=-1
compound=CCCCOC(=O)c1ccccc1C(=O)OCc1ccccc1 assigned_class=-1
compound="O=C(O)C1C2CCC(O2)C1C(=O)O (stereo not drawn)" assigned_class=1
compound=CCCCCCCCOC(=O)c1ccc(C(=O)OCCCCCCCC)c(C(=O)OCCCCCCCC)c1 assigned_class=-1
compound=CC(C)(OOC(C)(C)c1ccccc1)c1ccccc1 assigned_class=-1
compound=C=CCc1ccc2c(c1)OCO2 assigned_class=-1
compound=O=[N+]([O-])c1ccc(Oc2ccc(Cl)cc2Cl)cc1 assigned_class=-1

====

# Read-out: Interleukin-1 alpha (IL1a), IL1A (gene 3552)
# TEST: BSK_BE3C_IL1a: BioMAP Diversity Plus: BE3C Assay for Interleukin-1 alpha (IL1a) Biomarker Activity (AID 2283016)
# APPLIED_CONDITIONS: primary human bronchial epithelial cells; actives raise or lower the signal
Active and inactive are the calls of the source. Rule for the calls: active = hit-call score of the fitted dose curve at least 0.9, where 1 is the maximum; inactive = score below 0.9.
Classes used: active, inactive

compound=Clc1ccccc1Cl assigned_class=inactive
compound=CC(C)(O)c1cnn2c(-c3ccc(F)c(-c4c(F)cccc4C#N)c3)cnc2n1 assigned_class=active
compound=N#CC(Br)(Br)C(N)=O assigned_class=inactive
compound=CN(C)C(=O)Nc1ccc(Cl)cc1 assigned_class=inactive
compound=CC(C)(C)OOC(C)(C)CCC(C)(C)OOC(C)(C)C assigned_class=inactive
compound=CC(C)(C)OOC(=O)c1ccccc1 assigned_class=inactive
compound=CC(C)N(Cc1ccccc1)C(=O)C(C)(C)C assigned_class=inactive
compound=CC(C)(OOC(C)(C)c1ccccc1)c1ccccc1 assigned_class=inactive
compound="CCC(C)c1ccc(O)cc1 (centres undefined)" assigned_class=inactive
compound="CC(C)(C)C(O)(CCc1ccc(Cl)cc1)Cn1cncn1 (centres undefined)" assigned_class=inactive
compound=c1ccc(NNc2ccccc2)cc1 assigned_class=inactive
compound=ClCCOCCCl assigned_class=inactive
compound=COC(=O)Nc1nc2ccccc2[nH]1 assigned_class=inactive
compound="CCCCC(CC)COC(=O)c1ccc(C(=O)OCC(CC)CCCC)c(C(=O)OCC(CC)CCCC)c1 (centres undefined)" assigned_class=inactive

====

# Read-out: ABC Transporter (ABCB1), ABCB1 (gene 5243)
# TEST: LTEA_HepaRG_ABCB1: Life Technologies and Expression Analysis (LTEA) Assay for ABC Transporter (ABCB1) using HepaRG (AID 2283460)
# APPLIED_CONDITIONS: mRNA level, 48 h; actives raise or lower the signal
Activity calls are given as the source filed them. The calls were made as follows: active = hit-call score of the fitted dose curve at least 0.9, where 1 is the maximum; inactive = score below 0.9.
Possible outcomes: yes = active, no = inactive

compound=Cc1ccc(N=C=O)cc1N=C=O assigned_class=no
compound=O=[N+]([O-])C(Br)(CO)CO assigned_class=no
compound=CCC[CH2][Sn]([Cl])([CH2]CCC)[CH2]CCC assigned_class=yes
compound=COC(=O)Nc1nc2ccccc2[nH]1 assigned_class=no
compound=O=P(OCCCl)(OCCCl)OCCCl assigned_class=no
compound=CCCCCOC(=O)c1ccccc1C(=O)OCCCCC assigned_class=no
compound=CCCCCCCCOC(=O)c1ccc(C(=O)OCCCCCCCC)c(C(=O)OCCCCCCCC)c1 assigned_class=no
compound=CC(C)(C)OOC(C)(C)CCC(C)(C)OOC(C)(C)C assigned_class=no
compound=CC(C)(O)c1cnn2c(-c3ccc(F)c(-c4c(F)cccc4C#N)c3)cnc2n1 assigned_class=yes
compound=CN(C)[C@@H]1C(=O)C(C(N)=O)=C(O)[C@@]2(O)C(=O)C3=C(O)c4c(O)cccc4[C@@](C)(O)[C@H]3C[C@@H]12 assigned_class=no
compound=O=C(N[C@H](c1ccccc1)[C@@H]1CN2CCC1CC2)c1c(Cl)ccc(C(F)(F)F)c1Cl assigned_class=yes
compound=c1ccc(N=Nc2ccccc2)cc1 assigned_class=no
compound=CN(C)c1ccccc1 assigned_class=no
compound="CCCCC(CC)COC(=O)c1ccc(C(=O)OCC(CC)CCCC)c(C(=O)OCC(CC)CCCC)c1 (configuration not stated)" assigned_class=no
compound=CCN(CC)CCO assigned_class=no
compound=[As]#[In] assigned_class=no
compound=Brc1ccc(Oc2ccccc2)cc1 assigned_class=no
compound=Nc1ccc(Cc2ccc(N)cc2)cc1 assigned_class=no
compound=Oc1ccc2ccc3cccc4ccc1c2c34 assigned_class=no
compound=CN(C)c1ccc(C(=O)c2ccc(N(C)C)cc2)cc1 assigned_class=no
compound=CC(C)(C)OOC(=O)c1ccccc1 assigned_class=no
compound=C[C@]12C=CC3=C4CCC(=O)C=C4CC[C@H]3[C@@H]1CC[C@@H]2O assigned_class=no
compound="c1ccc(C2CO2)cc1 (configuration not stated)" assigned_class=no
compound=CCCCCCCCn1sccc1=O assigned_class=no
compound=Cn1cc(-c2ccccc2)c(=O)c(-c2cccc(C(F)(F)F)c2)c1 assigned_class=yes
compound=Clc1ccc(Cl)c(Cl)c1 assigned_class=no
compound=O=C1CCCO1 assigned_class=yes
